experiment: Cytotoxicity assay in PBM cells; type: cell-based; details: human, figure in parentheses not defined
parameter-measured: IC50

Look at this compound and give its reported IC50. C=C[C@@H]1C[C@]1(NC(=O)[C@@H]1C[C@@H](OC(=O)N2Cc3cccc(F)c3C2)CN1C(=O)[C@@H](NC(=O)C(C)(C)C(F)(F)F)C(C)(C)C)C(=O)NS(=O)(=O)C1CC1 [drawing 11]
> 100 µM

* * *

assay: HCV replicon assay, cytotoxicity from rRNA Ct values; assay type: cell-based; conditions: human, Huh 7 Clone B cells containing HCV replicon RNA; from rRNA, Huh 7 Clone B cells
parameter-measured: CC50 at 5 days

# query: CC50 at 5 days of entry C=C[C@@H]1C[C@]1(NC(=O)[C@@H]1C[C@@H](OC(=O)N2Cc3cccc(F)c3C2)CN1C(=O)[C@@H](NC(=O)C(C)(C)C(F)(F)F)C(C)(C)C)C(=O)NS(=O)(=O)C1CC1 [drawing 12]
> 100 nM
